procedure-text: Thermo Scientific Acclaim RSLC 120 C18, 100 × 2.1 mm, 2.2 µm, 30 °C; A: 90% water + 10% methanol + 0.01% formic acid + 5 mM ammonium formate; B: methanol + 0.01% formic acid + 5 mM ammonium formate; gradient (min/%B) 0.1/1 3/39 14/99.9 16/99.9
recorded-conditions: stereoisomer not certain
Would you mind telling me the reported LC retention time of each entry?
Give your result in min as a bare value.

Enquiry: Give the measured LC retention time of COC(=O)C(NC(=O)c1cn(CC2CCCCC2)c2ccccc12)C(C)(C)C (stereo not drawn) .
Return: 12.4

Enquiry: // same read-out, input: Oc1ccc2ccccc2c1N=Nc1ccccc1
Return: 13.6

Enquiry: Now give it for CC(CC(c1ccccc1)c1ccccc1)NC(C)(C)C (stereo not drawn) too.
Return: 7.91

Enquiry: CC(C)NCC(O)COc1ccc(CCOCC2CC2)cc1 (stereo not drawn) , same question.
Return: 6.68

Enquiry: Same question, CC1=C(C(=O)Nc2ccccc2)S(=O)(=O)CCO1 this time
Return: 5.59

Enquiry: Record: c1cc2c(cc1CN1CCNCC1)OCO2
Return: 4.22

Enquiry: Next compound: CCN(CC)C(=O)C(C)Oc1cccc2ccccc12 (stereo not drawn)
Return: 10.2

Enquiry: What would you report for COc1cc2nc(N3CCN(C(=O)C4CCCO4)CC3)nc(N)c2cc1OC (stereo not drawn) ?
Return: 4.92

Enquiry: Now try CCCc1nn(C)c2c(=O)[nH]c(-c3cc(C(=O)CN4CCN(CC=Cc5ccccc5)CC4)ccc3OCC)nc12 .
Return: 9.28

Enquiry: Same question, CC(C)(C)NCC(O)COc1cccc2c1SCCC2 (stereo not drawn) this time
Return: 6.76

Enquiry: Also, CCOP(=S)(OCC)Oc1ccc([N+](=O)[O-])cc1 please.
Return: 10.7

Enquiry: Thanks! And Nc1ccn(C2OC(CO)C(O)C2O)c(=O)n1 (stereo not drawn) ?
Return: 1.39

Enquiry: And what about the compound CN(C)CC1CCCCC1(O)c1cccc(O)c1 (stereo not drawn) ?
Return: 4.06

Enquiry: Do the same for CC12C=CC(=O)C=C1CCC1C2CCC2(C)C(O)CCC12 (stereo not drawn) please
Return: 9.03

Enquiry: # iterate: O=C1NC(=O)C(c2ccccc2)(c2ccccc2)N1
Return: 7.08

Enquiry: Another: C=C(C)C1Cc2c(ccc3c2OC2COc4cc(OC)c(OC)cc4C2C3=O)O1 (stereo not drawn)
Return: 10.5

Enquiry: Now give it for CCOP(=O)(NC(C)C)Oc1ccc(SC)c(C)c1 (stereo not drawn) too.
Return: 10.4

Enquiry: Try this compound too: CC(C)NC(=O)c1ccccc1O
Return: 7.14

Enquiry: Input C=CC1(C)CC(OC(=O)CSCCN(CC)CC)C2(C)C(C)CCC3(CCC(=O)C32)C(C)C1O (stereo not drawn)
Return: 7.71

Enquiry: Check O=C(OC1CN2CCC1CC2)N1CCc2ccccc2C1c1ccccc1 (stereo not drawn) too.
Return: 7.95

Enquiry: How about COC(=O)C(Cc1ccccc1)NC(=O)C(N)CC(=O)O (stereo not drawn) ?
Return: 5.01

Enquiry: Next compound: COCCOc1c(OC)cc(Cc2cnc(N)nc2N)cc1OC
Return: 4.24

Enquiry: Repeat with CC(=O)Nc1ccc(S(=O)(=O)Nc2nc(C)cc(C)n2)cc1
Return: 4.59

* * *

procedure-text: Thermo Scientific Acclaim RSLC 120 C18, 100 × 2.1 mm, 2.2 µm, 30 °C; A: 90% water + 10% methanol + 0.01% formic acid + 5 mM ammonium formate; B: methanol + 0.01% formic acid + 5 mM ammonium formate; gradient (min/%B) 0.1/1 3/39 14/99.9 16/99.9
recorded-conditions: stereoisomer not certain
metric-name: LC retention time (min)
The response must be a number in min with no trailing unit.

Enquiry: Please give the measured LC retention time for this molecule: CCCc1nn(C)c2c(=O)[nH]c(-c3cc(S(=O)(=O)N4CCN(CCO)CC4)ccc3OCC)nc12
Return: 7.83

Enquiry: Same for CCCc1nn(C)c2c(=O)[nH]c(-c3cc(C(=O)CN4CCCCC4)ccc3OCC)nc12
Return: 7.14

Enquiry: Also, O=C(Nc1ccccc1)Nc1cnns1 please.
Return: 7.17

Enquiry: Similarly, Cn1c(=O)c2c(ncn2CCO)n(C)c1=O ?
Return: 4.09

Enquiry: # iterate: Cc1cc2n[nH]nc2cc1C
Return: 6.76

Enquiry: Consider next the molecule O=C(O)c1cccc(Oc2ccccc2)c1 in the same way.
Return: 9.38

Enquiry: Field entry: COC(=O)c1ccccc1S(=O)(=O)NC(=O)N(C)c1nc(C)nc(OC)n1
Return: 7.94

Enquiry: // query: Cn1cc[nH]c1=S
Return: 2.61

Enquiry: Same for CC12CCC3C4CCC(=O)C=C4CCC3C1CCC2O (centres undefined)
Return: 9.37

Enquiry: Subsequent entry: COC(=O)C1=C(C#N)NC(C)=C(C(=O)OC(C)C)C1c1cccc([N+](=O)[O-])c1 (centres undefined)
Return: 10.3

Enquiry: Same lookup for CN(C)CCC=C1c2ccccc2COc2ccc(CC(=O)O)cc21 , please.
Return: 6.89

Enquiry: Same lookup for CCCCCC(C)n1c(C)c(C(=O)c2cccc3ccccc23)c2ccccc21 (centres undefined) , please.
Return: 13

Enquiry: And NC(N)=Nc1nc(CSCCC(N)=NS(N)(=O)=O)cs1 ?
Return: 3.24

Enquiry: // query: CNC(=O)Oc1ccccc1C1OCCO1
Return: 5.16

Enquiry: Now consider CCC(c1cccc(O)c1)C(C)CN(C)C (centres undefined) and answer again.
Return: 5.01

Enquiry: Lookup CCCCNC(=O)NS(=O)(=O)c1ccc(N)cc1
Return: 5.36

Enquiry: Let us now turn to CCCSc1cc(OC)c(CCN)cc1OC
Return: 6.98

Enquiry: Request: CCCCC(=O)N(Cc1ccc(-c2ccccc2-c2nn[nH]n2)cc1)C(C(=O)O)C(C)C (centres undefined)
Return: 9.21

Enquiry: Follow-up entry: CC(=O)Oc1ccc(C(c2ccc(OC(C)=O)cc2)c2ccccn2)cc1
Return: 8.92

Enquiry: Record: CCSC(=O)N(CC(C)C)CC(C)C
Return: 12

Enquiry: Input CCCN(CCC)C(=O)SCc1ccccc1
Return: 11.9

Enquiry: Would you mind doing COc1cccc(C2(O)CCCCC2CN)c1 (centres undefined) as well?
Return: 5.19

Enquiry: Now this one: CCCCn1cc(C(=O)c2cccc3ccccc23)c2cc(O)ccc21
Return: 11.3

Enquiry: Same lookup for CN(C)c1ccccc1 , please.
Return: 6.26

* * *

Exercise: state measured LC retention time for each of the molecules provided.
procedure-text: Thermo Scientific Acclaim RSLC 120 C18, 100 × 2.1 mm, 2.2 µm, 30 °C; A: 90% water + 10% methanol + 0.01% formic acid + 5 mM ammonium formate; B: methanol + 0.01% formic acid + 5 mM ammonium formate; gradient (min/%B) 0.1/1 3/39 14/99.9 16/99.9
recorded-conditions: stereoisomer not certain
// units = min; emit number, no label

Enquiry: LC retention time for NS(=O)(=O)c1cc(C(=O)O)cc(N2CCCC2)c1Oc1ccccc1 ?
Return: 7.17

Enquiry: Now the same for COc1cc(NS(=O)(=O)c2ccc(N)cc2)ncn1
Return: 4.75

Enquiry: Next molecule: CCc1cnc(C2=NC(C)(C(C)C)C(=O)N2)c(C(=O)O)c1 (stereo not drawn)
Return: 5.6

Enquiry: Also check CCN(CC)C(=O)C1(c2ccccc2)CC1CN (stereo not drawn)
Return: 5.73

Enquiry: Next molecule up: CN1C(=O)CC(C)(c2ccccc2)C1=O (stereo not drawn)
Return: 6.71

Enquiry: Subsequent entry: Nc1ccc([N+](=O)[O-])cc1C(=O)c1ccccc1
Return: 8.99

Enquiry: // query: CCCCc1c(C)nc(NCC)nc1OS(=O)(=O)N(C)C
Return: 10.5

Enquiry: Same read-out for CCCCCn1cc(C(=O)c2cccc3ccccc23)c2cccc(O)c21 ?
Return: 11.8

Enquiry: Try this molecule next: Nc1ccc(S(=O)(=O)Nc2ccccn2)cc1
Return: 3.8

Enquiry: What do you have for CC(Cc1ccc2c(c1)OCO2)N(C)C (stereo not drawn) ?
Return: 4.08

Enquiry: Also need CCCc1nn(C)c2c(=O)[nH]c(-c3cc(S(=O)(=O)N4CCNCC4)ccc3OCC)nc12 , thanks.
Return: 7.35

Enquiry: Also, COc1cc2c(cc1OC)C(=O)C(CC1CCN(Cc3ccccc3)CC1)C2 (stereo not drawn) please.
Return: 5.81

Enquiry: Note, next up: COC(C)(C)CCCC(C)CC=CC(C)=CC(=O)OC(C)C (stereo not drawn)
Return: 13.6

Enquiry: Another molecule to check: COP(=S)(OC)Oc1ccc(S(C)(=O)=O)c(C)c1
Return: 7.57

Enquiry: Subsequent entry: CC(C(O)c1ccccc1)N(C)C (stereo not drawn)
Return: 3.73

Enquiry: Also check NC(CO)C(=O)NNCc1ccc(O)c(O)c1O (stereo not drawn)
Return: 1.38

Enquiry: Note, next up: CCC1OC(=O)C(C)C(OC2CC(C)(OC)C(O)C(C)O2)C(C)C(OC2OC(C)CC(N(C)C)C2O)C(C)(O)CC(C)C(=O)C(C)C(O)C1(C)O (stereo not drawn)
Return: 8

Enquiry: One more molecule: CCC1=C(C)CN(C(=O)NCCc2ccc(S(=O)(=O)NC(=O)NC3CCC(C)CC3)cc2)C1=O (stereo not drawn)
Return: 10.7

Enquiry: Would you mind doing O=c1[nH]cnc2[nH]ncc12 as well?
Return: 2.19

Enquiry: Can you check CCSC(=O)N1CCCCCC1 next?
Return: 9.89

Enquiry: Same for CCC=CCC1=C(C)C(OC(=O)C2C(C=C(C)C(=O)OC)C2(C)C)CC1=O (stereo not drawn)
Return: 12.2

Enquiry: Now consider COC(=O)C(c1ccccc1)C1CCCCN1 (stereo not drawn) .
Return: 4.96

Enquiry: Try this molecule too: CNC(C)C(=O)c1ccc(C)cc1 (stereo not drawn)
Return: 4.49

Where these numbers come from: the RepoRT retention time repository (doi:10.1016/j.jhazmat.2019.121712)
